- System: SK-MEL-2 (Melanoma)
- experiment description: NCI-60 single-dose anticancer screen
- Assay type: cell-based, human
- experimental parameters: 10 µM single dose
For each entry below, report its cell growth promotion value.
Answers are plain numbers, in %.

These solved cases illustrate the format of a correct answer.
Sample COc1cc(C2CC(c3ccc(N4CCNCC4)cc3)=NN2)ccc1F (stereo not drawn) , system: SK-MEL-2 (Melanoma). Its cell growth promotion is 87.70

Sample N#Cc1ccccc1C1CC(c2ccc(N3CCNCC3)cc2)=NN1 (stereo not drawn) , system: SK-MEL-2 (Melanoma). Its cell growth promotion is 94.51

Sample COc1cc(C=CC(=O)c2ccc(N3CCNCC3)cc2)ccc1F , system: SK-MEL-2 (Melanoma). Its cell growth promotion is 85.44

Sample O=C(C=Cc1cccc(F)c1)c1ccc(N2CCNCC2)cc1 , system: SK-MEL-2 (Melanoma). Its cell growth promotion is 96.08

Sample O=C(C=Cc1ccncc1F)c1ccc(N2CCNCC2)cc1 , system: SK-MEL-2 (Melanoma). Its cell growth promotion is 91.63

Now examine the next entry.
Sample Fc1cnccc1C1CC(c2ccc(N3CCNCC3)cc2)=NN1 (stereo not drawn) , system: SK-MEL-2 (Melanoma). Its cell growth promotion is 92.72

* * *

For each entry below, report its cell growth promotion value.
- Tested on: A498 (Renal cancer)
- experiment description: NCI-60 single-dose anticancer screen
- Type: cell-based, human
- experimental parameters: 10 µM single dose
Answer format: value, then unit.

GET /value?item= N#Cc1ccccc1C1CC(c2ccc(N3CCNCC3)cc2)=NN1 (stereo not drawn) &field=cell growth promotion returns 93.08%

GET /value?item= COc1cc(C2CC(c3ccc(N4CCNCC4)cc3)=NN2)ccc1F (stereo not drawn) &field=cell growth promotion returns 90.59%

GET /value?item= O=C(C=Cc1cccc(F)c1)c1ccc(N2CCNCC2)cc1 &field=cell growth promotion returns 95.14%

Give cell growth promotion for all molecules that follow.
1. O=C(C=Cc1ccncc1F)c1ccc(N2CCNCC2)cc1
2. COc1cc(C=CC(=O)c2ccc(N3CCNCC3)cc2)ccc1F
3. Fc1cnccc1C1CC(c2ccc(N3CCNCC3)cc2)=NN1 (stereo not drawn)

Solution:
97.22%
100.79%
97.17%

* * *

- Tested on: PC-3 (Prostate cancer)
- experiment description: NCI-60 single-dose anticancer screen
- Assay type: cell-based, human
- experimental parameters: 10 µM single dose
For each entry below, report its cell growth promotion value.
Numbers only, in %.

These solved cases illustrate the format of a correct answer.
Sample Fc1cnccc1C1CC(c2ccc(N3CCNCC3)cc2)=NN1 (stereo not drawn) [VIc] , system: PC-3 (Prostate cancer). Its cell growth promotion is 70.34

Sample O=C(C=Cc1cccc(F)c1)c1ccc(N2CCNCC2)cc1 [Vd] , system: PC-3 (Prostate cancer). Its cell growth promotion is 66.01

Sample N#Cc1ccccc1C1CC(c2ccc(N3CCNCC3)cc2)=NN1 (stereo not drawn) [VIa] , system: PC-3 (Prostate cancer). Its cell growth promotion is 83.35

Sample COc1cc(C=CC(=O)c2ccc(N3CCNCC3)cc2)ccc1F [Ve] , system: PC-3 (Prostate cancer). Its cell growth promotion is 51.40

Give cell growth promotion for all compounds that follow.
1. COc1cc(C2CC(c3ccc(N4CCNCC4)cc3)=NN2)ccc1F (stereo not drawn) [VIb]
2. O=C(C=Cc1ccncc1F)c1ccc(N2CCNCC2)cc1 [Vf]

Solution:
[64.23, 73.56]

* * *

assay metric: melting point (°C)
Give bare numbers, in °C.

GET /value?item= O=C(C=Cc1ccco1)c1ccc(N2CCNCC2)cc1 [Vh] &field=melting point returns 190

Give melting point for all molecules that follow.
1. O=C(C=Cc1cc([N+](=O)[O-])ccc1O)c1ccc(N2CCNCC2)cc1 [Vg]
2. N#Cc1ccccc1C=CC(=O)c1ccc(N2CCNCC2)cc1 [Va]

Solution:
185
150

* * *

- Tested on: HCC-2998 (Colon cancer)
- experiment description: NCI-60 single-dose anticancer screen
- Assay type: cell-based, human
- experimental parameters: 10 µM single dose
- Description: Six compounds were selected by the NCI, according to NCI’s DTP selection guidelines, for evaluation of their anticancer activity at a single-dose of 10 µM against 60 human tumours cell lines. In vitro cytotoxicity was performed in NCI according to reported method.
For each entry below, report its cell growth promotion value.
One number for each entry, in %.

GET /value?item= COc1cc(C2CC(c3ccc(N4CCNCC4)cc3)=NN2)ccc1F (stereo not drawn) &field=cell growth promotion returns 104.57

Give cell growth promotion for all molecules that follow.
1. N#Cc1ccccc1C1CC(c2ccc(N3CCNCC3)cc2)=NN1 (stereo not drawn)
2. Fc1cnccc1C1CC(c2ccc(N3CCNCC3)cc2)=NN1 (stereo not drawn)
3. O=C(C=Cc1ccncc1F)c1ccc(N2CCNCC2)cc1
4. O=C(C=Cc1cccc(F)c1)c1ccc(N2CCNCC2)cc1
5. COc1cc(C=CC(=O)c2ccc(N3CCNCC3)cc2)ccc1F

Solution:
1: 96.75; 2: 101.72; 3: 100.88; 4: 94.99; 5: 100.21

* * *

- System: 786-0 (Renal cancer)
- experiment description: NCI-60 single-dose anticancer screen
- Assay type: cell-based, human
- experimental parameters: 10 µM single dose
For each entry below, report its cell growth promotion value.
Numbers only, in %.

These solved cases illustrate the format of a correct answer.
GET /value?item= O=C(C=Cc1ccncc1F)c1ccc(N2CCNCC2)cc1 &field=cell growth promotion returns 103.38

GET /value?item= COc1cc(C2CC(c3ccc(N4CCNCC4)cc3)=NN2)ccc1F (stereo not drawn) &field=cell growth promotion returns 94.50

GET /value?item= Fc1cnccc1C1CC(c2ccc(N3CCNCC3)cc2)=NN1 (stereo not drawn) &field=cell growth promotion returns 111.09

Give cell growth promotion for all compounds that follow.
1. O=C(C=Cc1cccc(F)c1)c1ccc(N2CCNCC2)cc1
2. COc1cc(C=CC(=O)c2ccc(N3CCNCC3)cc2)ccc1F

Solution:
[85.24, 87.22]

GET /value?item= N#Cc1ccccc1C1CC(c2ccc(N3CCNCC3)cc2)=NN1 (stereo not drawn) &field=cell growth promotion returns 106.73

* * *

For each entry below, report its cell growth promotion value.
- Test system: TK-10 (Renal cancer)
- experiment description: NCI-60 single-dose anticancer screen
- Type: cell-based, human
- experimental parameters: 10 µM single dose
One number for each entry, in %.

These solved cases illustrate the format of a correct answer.
GET /value?item= O=C(C=Cc1cccc(F)c1)c1ccc(N2CCNCC2)cc1 [Vd] &field=cell growth promotion returns 114.19

GET /value?item= O=C(C=Cc1ccncc1F)c1ccc(N2CCNCC2)cc1 [Vf] &field=cell growth promotion returns 95.83

GET /value?item= COc1cc(C2CC(c3ccc(N4CCNCC4)cc3)=NN2)ccc1F (stereo not drawn) [VIb] &field=cell growth promotion returns 113.60

GET /value?item= Fc1cnccc1C1CC(c2ccc(N3CCNCC3)cc2)=NN1 (stereo not drawn) [VIc] &field=cell growth promotion returns 122.80

GET /value?item= N#Cc1ccccc1C1CC(c2ccc(N3CCNCC3)cc2)=NN1 (stereo not drawn) [VIa] &field=cell growth promotion returns 130.17

Now examine the next entry.
GET /value?item= COc1cc(C=CC(=O)c2ccc(N3CCNCC3)cc2)ccc1F [Ve] &field=cell growth promotion returns 101.24

* * *

- Test system: LOX IMVI (Melanoma)
- experiment description: NCI-60 single-dose anticancer screen
- Type: cell-based, human
- experimental parameters: 10 µM single dose
assay metric: cell growth promotion (%)
One number for each entry, in %.

These solved cases illustrate the format of a correct answer.
GET /value?item= COc1cc(C2CC(c3ccc(N4CCNCC4)cc3)=NN2)ccc1F (stereo not drawn) &field=cell growth promotion returns 79.56

GET /value?item= Fc1cnccc1C1CC(c2ccc(N3CCNCC3)cc2)=NN1 (stereo not drawn) &field=cell growth promotion returns 94.31

GET /value?item= N#Cc1ccccc1C1CC(c2ccc(N3CCNCC3)cc2)=NN1 (stereo not drawn) &field=cell growth promotion returns 99.03

GET /value?item= O=C(C=Cc1cccc(F)c1)c1ccc(N2CCNCC2)cc1 &field=cell growth promotion returns 71.13

GET /value?item= COc1cc(C=CC(=O)c2ccc(N3CCNCC3)cc2)ccc1F &field=cell growth promotion returns 49.01

Now examine the next entry.
GET /value?item= O=C(C=Cc1ccncc1F)c1ccc(N2CCNCC2)cc1 &field=cell growth promotion returns 103.22

* * *

- Tested on: HOP-92 (Non-small cell lung cancer)
- experiment description: NCI-60 single-dose anticancer screen
- Assay type: cell-based, human
- experimental parameters: Homo sapiens, 10 µM single dose, read-out: cell growth inhibition
For each entry below, report its inhibition at 10 µM value.
Numbers only, in %.

These solved cases illustrate the format of a correct answer.
Sample O=C(C=Cc1ccncc1F)c1ccc(N2CCNCC2)cc1 [Vf] , system: HOP-92 (Non-small cell lung cancer). Its inhibition at 10 µM is 17.7

Sample O=C(C=Cc1cccc(F)c1)c1ccc(N2CCNCC2)cc1 [Vd] , system: HOP-92 (Non-small cell lung cancer). Its inhibition at 10 µM is 41.6

Sample N#Cc1ccccc1C1CC(c2ccc(N3CCNCC3)cc2)=NN1 (stereo not drawn) [VIa] , system: HOP-92 (Non-small cell lung cancer). Its inhibition at 10 µM is 16.8

Give inhibition at 10 µM for all compounds that follow.
1. COc1cc(C=CC(=O)c2ccc(N3CCNCC3)cc2)ccc1F [Ve]
2. Fc1cnccc1C1CC(c2ccc(N3CCNCC3)cc2)=NN1 (stereo not drawn) [VIc]
3. COc1cc(C2CC(c3ccc(N4CCNCC4)cc3)=NN2)ccc1F (stereo not drawn) [VIb]

Solution:
45
27.6
42.9
